- Organism: Homo sapiens
- ASSAY INFO: Selectivity index, ratio of Ki for displacement of [3H] Spiperone from human D3 receptor expressed in CHO cells to Ki for displacement of [3H] Spiperone from human D4.4 receptor expressed in CHO cells
- Format: cell-based
Below, each entry is listed alongside its reported Ratio Ki.

{"CPD SMILES": "COc1ccccc1N1CCN(CCCNC(=O)NN(Cc2ccccc2)c2ccc(F)cc2)CC1", "Ratio Ki": 45}
{"CPD SMILES": "COc1ccccc1N1CCN(CCCNC(=O)NN(Cc2ccccc2F)c2ccc(Cl)cc2)CC1", "Ratio Ki": 36}
{"CPD SMILES": "O=C(NCCN1CCN(c2ccc(Br)cc2)CC1)NN(Cc1ccccc1)c1ccccc1", "Ratio Ki": 64}
{"CPD SMILES": "COc1ccccc1N1CCN(CCCNC(=O)NN(Cc2ccccc2)c2ccc(Br)cc2)CC1", "Ratio Ki": 38}
{"CPD SMILES": "COc1ccccc1N1CCN(CCCNC(=O)NN(Cc2ccccc2F)c2ccc(Br)cc2)CC1", "Ratio Ki": 28}
